Sourced from paper PMC12916826

# Assayed Target: hGAT3-C316S (Homo sapiens, UniProt P48066, C316S)
# Sequence (P48066 whole entry C316S): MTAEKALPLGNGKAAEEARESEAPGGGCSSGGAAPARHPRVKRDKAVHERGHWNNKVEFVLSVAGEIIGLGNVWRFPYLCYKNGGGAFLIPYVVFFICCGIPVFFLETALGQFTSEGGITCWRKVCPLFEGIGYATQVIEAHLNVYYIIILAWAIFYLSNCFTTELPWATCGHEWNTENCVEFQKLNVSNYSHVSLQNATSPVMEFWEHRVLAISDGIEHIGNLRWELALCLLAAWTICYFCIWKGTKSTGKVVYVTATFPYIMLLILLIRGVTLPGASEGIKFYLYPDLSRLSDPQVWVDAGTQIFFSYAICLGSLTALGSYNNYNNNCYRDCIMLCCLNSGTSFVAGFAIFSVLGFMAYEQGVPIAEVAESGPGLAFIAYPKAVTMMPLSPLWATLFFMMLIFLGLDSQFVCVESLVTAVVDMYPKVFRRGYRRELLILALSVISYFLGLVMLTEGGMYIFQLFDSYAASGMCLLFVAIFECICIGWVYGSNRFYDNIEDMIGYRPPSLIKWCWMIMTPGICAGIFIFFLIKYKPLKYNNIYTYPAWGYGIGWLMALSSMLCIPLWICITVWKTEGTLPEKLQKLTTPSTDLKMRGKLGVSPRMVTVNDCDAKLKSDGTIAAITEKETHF
# Test Name: [3H]GABA competition uptake assay, hGAT3-C316S mutant in HEK293T cells
# Assay type: cell-based
# Assay Context: read-out: IC50, inhibition of [3H]GABA uptake by hGAT3-C316S; 120 min preincubation
Recorded Metric: pIC50
One number for each entry, as −log10 of the molar value.

What pIC50 value was documented for this compound, COc1ccc(C(/C=C/CN2CCC[C@@H]2[C@H](O)C(=O)O)(c2ccc(OC)cc2)c2ccc(OC)cc2)cc1 ?
4.97

###

# Assayed Target: hGAT3 (Homo sapiens)
# Sequence (P48066 whole entry): as the sequence (P48066 whole entry C316S) above, with S316C counted along it
# Test Name: [3H]GABA competition uptake assay, wild-type hGAT3 in HEK293T cells
# Assay type: cell-based
# Assay Context: read-out: IC50, inhibition of [3H]GABA uptake by hGAT3; 120 min preincubation (with preincubation); HEK293T cells
Recorded Metric: pIC50
One number for each entry, as −log10 of the molar value.

Recorded pIC50 of COc1ccc(C(/C=C/CN2CCC[C@@H]2[C@H](O)C(=O)O)(c2ccc(OC)cc2)c2ccc(OC)cc2)cc1 [SR-THAP] , please.
5.31
